The measurements presented in this section are drawn from patent US7875645B2.

biological target: TAAR1 (Mus musculus)
QUANTITY: pKd
Just the number, please; pKd means minus log10 of the concentration in mol/L.

Name the recorded pKd for c1ccc2c(c1)CCCC2C1=NCCN1 (racemic) [reference compound] . 7.22

---

target: TAAR1 (Mus musculus, UniProt Q923Y8); construct: expressed in transfected cells; host or cells: HEK293 (ATCC # CRL-1573), stably transfected with pIRESneo2 expression plasmid; membranes prepared; assay: Radioligand binding assay on membranes of HEK293 cells stably expressing TAAR1; conditions: mouse TAAR1; radioligand [3H]-rac-2-(1,2,3,4-tetrahydro-1-naphthyl)-2-imidazoline at 60 nM; 4° C., 30 min
Sequence (Q923Y8 whole entry): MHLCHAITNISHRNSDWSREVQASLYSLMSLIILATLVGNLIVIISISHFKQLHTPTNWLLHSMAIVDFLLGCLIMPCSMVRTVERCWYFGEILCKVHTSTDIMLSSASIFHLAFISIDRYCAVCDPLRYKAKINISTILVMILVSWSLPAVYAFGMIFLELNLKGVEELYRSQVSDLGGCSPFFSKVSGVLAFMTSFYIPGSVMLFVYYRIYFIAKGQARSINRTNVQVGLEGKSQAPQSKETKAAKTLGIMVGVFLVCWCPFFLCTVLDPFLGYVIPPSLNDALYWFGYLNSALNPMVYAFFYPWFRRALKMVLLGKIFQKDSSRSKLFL
Where a name gives a salt, the structure may show the parent alone.
QUANTITY: Ki (µM)
Quick note: give the figure in µM, leave out the unit.

Some compounds with recorded Ki:
Which Ki is reported for this compound? `Brc1ccc(CC2=NCCN2)c2ccccc12` 0.008

How about `CCOc1cc(CC)c(Cc2ncc[nH]2)c(CC)c1` ? 0.029

Same lookup for `CCc1cccc(C(C)C)c1CC1=NCCN1` , please. 0.03

Next up: `CCc1ccc(Cl)c(CC)c1CC1=NCCN1` 0.023

// moving on: another record for Ki
What does the record list as Ki for COc1c(CC2=NCCN2)ccc2occc12 [Example 169, hydrochloride] ? 0.045

---

Target: TAAR1 (Mus musculus)
Construct: expressed in transfected cells; host or cells: HEK293 (ATCC # CRL-1573), stably transfected with pIRESneo2 expression plasmid; membranes prepared
Test: Radioligand binding assay on membranes of HEK293 cells stably expressing TAAR1
Settings: mouse TAAR1; radioligand [3H]-rac-2-(1,2,3,4-tetrahydro-1-naphthyl)-2-imidazoline at 60 nM; 4° C., 30 min
Protocol: For the construction of expression plasmids the coding sequences of human, rat and mouse TAAR 1 were amplified from genomic DNA essentially as described by Lindemann et al.. […] Cells at confluence were rinsed with ice-cold phosphate buffered saline without Ca^2+ and Mg^2+ containing 10 mM EDTA and pelleted by centrifugation at 1000 rpm for 5 min at 4° C. […] Protein concentration was determined by the method of Pierce (Rockford, Ill.). […]
Where a name gives a salt, the structure may show the parent alone.
QUANTITY: Ki
Give the figure together with its unit, number first.

Some molecules with recorded Ki:
API: value(readout= Ki, system= TAAR1 (Mus musculus), query= COc1cc(Br)c(C)c(CC2=NCCN2)c1 [Example 58] ) 0.03 µM

Item: COc1cccc(Cl)c1CC1=NCCN1 [Example 55] 0.017 µM

Field entry: c1ccc(C2CC2)c(CC2=NCCN2)c1 [Example 56] 0.025 µM

How about this molecule: c1cc(CC2=NCCN2)c2ccoc2c1 [Example 168, hydrochloride] 0.045 µM

Try this molecule too: CCc1ccc(Br)c(CC)c1CC1=NCCN1 [Example 32] 0.005 µM

Cool, now CCc1c(Cl)ccc(F)c1CC1=NCCN1 [Example 198] 0.036 µM

Could you do the same for CC(C1=NCCN1)c1ccc(Cc2ccccc2)cc1 (racemic) [Example 158, hydrochloride] , please? 0.021 µM

What do you have for c1ccc2c(CC3=NCCN3)cccc2c1 [Example 140, reference compound] ? 0.007 µM

More entries:
Return Ki measured with TAAR1 (Mus musculus) given this molecule: Cc1sc(C)c(CC2=NCCN2)c1C [Example 109] 0.004 µM

Same thing, different molecule: c1ccc2cc(CC3=NCCN3)ccc2c1 [Example 141] 0.029 µM
